Below is a list of entries, each paired with its recorded GI50 value.
- Test system: NCI-H522
- Procedure Details: NCI tumour cell line growth inhibition, 48 h
Active and inactive are the calls of the source. Rule as the data show it: active = GI50 up to about 1.1 µM and inactive = higher.

Please review the following examples before continuing.
O=C1OC(=O)C([Se]c2ccccc2)=C1[Se]c1ccccc1; > 100 µM (inactive)
Cc1cc(C#N)c(Nc2ccccc2[N+](=O)[O-])s1; 19.8 µM (inactive)
Cc1ncc(CCl)c(CCl)c1O; > 100 µM (inactive)
CC(=O)Oc1ccc2c(C)cc(=O)oc2c1; > 100 µM (inactive)
C=C(C)[C@H]1C[C@@H]2O[C@@](O)(/C(C)=C\C(=O)/C=C(/C)C[C@H]3OC(=O)[C@@]24O[C@H]34)[C@@H]1O; > 100 µM (inactive)

Next:
**Q:** Fill in: GI50 of CC12CCC3(OCCO3)C(OC(=O)c3ccccc3)=C1CCC21OCCO1 (stereo unspecified) is ___
**A:** > 100 µM (inactive)

----------
- System: NCI-H460
- Procedure Details: NCI tumour cell line growth inhibition, 48 h
Calls of active or inactive are those of the source. Rule as the data show it: active = GI50 up to about 1.1 µM and inactive = higher.
Reply using exactly one outcome from true = active, false = inactive

CN(C)CCNC(=O)c1cccc2c(NC(CS)C(=O)O)c3ccccc3[n+](C)c12 (stereo not given); false
COCC12CCC(OC)C34C5CC6(O)C(OC)C=C(C5C6OC(=O)c5ccccc5)C(C(OC)C13)C4N(C)C2 (stereo not given); false
Cc1c(Cl)c2ccccc2n1S(=O)(=O)c1ccccc1; false
OCCOCCN1CCN(CCCN2c3ccccc3Sc3ccc(C(F)(F)F)cc32)CC1; false
O=C1N[C@H](Cc2c[nH]cn2)C(=O)N2CCC[C@@H]12; false
O=C(CC(=O)c1cccc([N+](=O)[O-])c1)C(=O)Nc1nc([N+](=O)[O-])cs1; false
NC(=O)OCC(COc1ccc(Cl)cc1)OC(=O)c1ccccc1Cl (stereo not given); false
OCCn1cnc2c(SCc3ccccc3)ncnc21; false

**Q:** Recorded test call requested for COC(=O)CC(NC(=O)OCc1ccccc1)C(C(=O)OCc1ccccc1)C1(C)OCCO1 (stereo not given)
**A:** false

**Q:** What about this compound? O=c1c(-c2ccccc2)nnc2n(Cc3ccccc3)c3ccccc3n12
**A:** false

----------
- System: NCI-H226
- Procedure Details: NCI tumour cell line growth inhibition, 48 h
Active and inactive are the calls of the source. Cut-off read from the data, not from the text of the source: active = GI50 up to about 1.1 µM and inactive = higher.
Below is a list of entries, each paired with its recorded GI50 value.

COc1cc(/C=N/c2ccc(S(N)(=O)=O)cc2)cc(OC)c1; > 50 µM (inactive)

Next:
**Q:** Fill in: GI50 of C=C(Br)CNC(=O)CCC(=O)NCC(=C)Br is ___
**A:** > 100 µM (inactive)

----------
- Tested on: T47D
- Procedure Details: NCI tumour cell line growth inhibition, 48 h
Activity calls are given as the source filed them. Rule as the data show it: active = GI50 up to about 1.1 µM and inactive = higher.
Reply using exactly one outcome from active, inactive

Answered cases to consult:
COc1ccc(C2=C(N)c3ccccc3C2=O)cc1; inactive
COc1cc(/C=N/N=C2NCCN2)ccc1O; inactive
CC1(C)[C@H]2CC[C@](C)(C2)[C@]1(S)Cc1ccccn1; inactive
O=c1[nH]c2ccc([N+](=O)[O-])c(Cl)c2c2ccccc12; inactive
Cc1c(-c2ccccc2)c(C#N)c2nnn(-c3ccc([N+](=O)[O-])cc3)c(=O)n12; inactive

**Q:** Recorded test call requested for CCOP(=O)(OCC)C(F)(F)Cc1cnc(C)c2c1COC(C)(C)O2
**A:** inactive

**Q:** What about this molecule? CCCCCCCCNC(=O)C1=C(C)NC(C)=C(C(=O)NCCCCCCCC)C1
**A:** inactive

**Q:** What about this molecule? COc1cc2c(cc1OC)C(C1CC1)ON(C)CC2 (stereo unspecified)
**A:** inactive

**Q:** What about this molecule? Cc1ccnc(NS(=O)(=O)c2ccc(NC(=O)c3ccc4nc5ccccc5c(Nc5ccc(S(=O)(=O)Nc6nccc(C)n6)cc5)c4c3)cc2)n1
**A:** inactive

----------
- Tested on: HOP-62
- Procedure Details: NCI tumour cell line growth inhibition, 48 h
Activity calls are given as the source filed them. Rule as the data show it: active = GI50 up to about 1.1 µM and inactive = higher.
Reported Property: GI50

CC(C)CCCC(C)[C@H]1CC[C@H]2[C@@H]3CC[C@H]4C[C@@H](CCC=C(c5cc(Cl)c(O)c(C(=O)OC(C)C)c5)c5cc(Cl)c(O)c(C(=O)OC(C)C)c5)CC[C@]4(C)[C@H]3CC[C@]12C (some centres undefined); > 50 µM (inactive)
Nc1nc2c(c(-c3ccccc3Cl)n1)COC/C2=C\c1ccccc1Cl; 18.1 µM (inactive)
CCc1nc(N)nc(N)c1-c1ccc2nn(-c3ccccc3)[n+]([O-])c2c1; 5.82 µM (inactive)

Next:
**Q:** Fill in: GI50 of COc1cc(C2C3=C(NC(=O)C2C#N)c2ccc4ccccc4c2OCC3)cc(OC)c1OC (centres undefined) is ___
**A:** 20 µM (inactive)

----------
- Tested on: SF-268
- Procedure Details: NCI tumour cell line growth inhibition, 48 h
Calls of active or inactive are those of the source. Cut-off read from the data, not from the text of the source: active = GI50 up to about 1.1 µM and inactive = higher.
Below is a list of entries, each paired with its recorded GI50 value.

Please review the following examples before continuing.
O=C(c1ccccc1)c1ccc(N2C(=O)/C(=C/c3cccc([N+](=O)[O-])c3)N=C2c2ccccc2)c(N2C(=O)/C(=C/c3cccc([N+](=O)[O-])c3)N=C2c2ccccc2)c1; 62.5 µM (inactive)
O=c1[nH]c2ccc([N+](=O)[O-])c(Cl)c2c2ccccc12; 2.74 µM (inactive)
N#Cc1c(N)oc(-c2cccc([N+](=O)[O-])c2)c1C#N; 31.4 µM (inactive)
CN1c2ccccc2C(=O)NC12CCNCC2; > 100 µM (inactive)
CN(C)Cc1cc(C(=O)/C=C/c2ccc(Br)cc2)cc(CN(C)C)c1O; 18.2 µM (inactive)

**Q:** Fill in: GI50 of O=C(C/C(=N/O)c1cc(-c2ccccc2)no1)c1ccccc1 is ___
**A:** 18.7 µM (inactive)

**Q:** What about this compound? C[N+](C)(C)/N=C\c1ccc(O)c(O)c1
**A:** > 100 µM (inactive)

**Q:** What about this compound? CCCCCCCCCCCCCCCCCCCCCC(=O)Nc1ccn(C2OC(CO)C(O)C2O)c(=O)n1 (stereo not given)
**A:** 18.4 µM (inactive)

**Q:** What about this compound? c1ccc(CNC2CC(NCc3ccccn3)CC(NCc3ccccn3)C2)nc1 (stereo not given)
**A:** 4.53 µM (inactive)

**Q:** What about this compound? CCOc1ccc(/N=N/C2C(=O)N(C(=O)CC(=O)Nc3ccccc3OC)N=C2C)cc1 (stereo not given)
**A:** > 42.8 µM (inactive)

----------
- Tested on: HCC 2998
- Procedure Details: NCI tumour cell line growth inhibition, 48 h
Calls of active or inactive are those of the source. No stated cut-off is given here; in the data, active = GI50 up to about 1.1 µM and inactive = higher.
Reported Property: GI50

Cc1cnc2c(c1)C(=O)N(c1ccc(Br)cc1)S2(=O)=O; > 100 µM (inactive)
CC[C@H]1C=CCC[C@@]2(C[C@@H]3CC[C@H]4[C@@H](C(=O)OCCCCCCCCCCCCCCCC(=O)N(CCCNC(C)=O)C[C@H](CCNC(C)=O)OC(C)=O)[C@@]5(CCC[C@@H](C)O5)NC(=[N+]34)N2)O1; 1.26 µM (inactive)

Next:
**Q:** Fill in: GI50 of O=C1/C(=C/c2ccccc2)CNC/C1=C\c1ccccc1 is ___
**A:** 1.87 µM (inactive)

----------
Below is a list of entries, each paired with its recorded GI50 value.
- Test system: ACHN
- Procedure Details: NCI tumour cell line growth inhibition, 48 h
The source made the active and inactive calls. No stated cut-off is given here; in the data, active = GI50 up to about 1.1 µM and inactive = higher.

COC1=CC(=O)c2c(CCNC(=O)OCc3ccccc3)n[nH]c2C1=O; 14.2 µM (inactive)
CCCCCCCCCCCCCCCCCCCCCC(=O)Nc1ccn(C2OC(CO)C(O)C2O)c(=O)n1 (configuration not stated); 5.2 µM (inactive)
Cc1ncc(CCl)c(CCl)c1O; > 100 µM (inactive)

Next:
**Q:** Fill in: GI50 of OCCn1cnc2c(SCc3ccccc3)ncnc21 is ___
**A:** > 100 µM (inactive)

----------
- Tested on: NCI/ADR-RES
- Procedure Details: NCI tumour cell line growth inhibition, 48 h
The source made the active and inactive calls. Rule as the data show it: active = GI50 up to about 1.1 µM and inactive = higher.
Reported Property: GI50

Please review the following examples before continuing.
CC(C)NC(=O)OCCN=C1c2ccccc2CCc2ccccc21; 30.3 µM (inactive)
O=C(O)c1cc(C(=O)O)cc(N2C(=O)c3ccccc3C2=O)c1; > 100 µM (inactive)
CC(=O)N(CC(=O)C(=O)NNc1ccoc1)c1ccc(Cl)cc1; > 100 µM (inactive)
CC1(C)[C@H]2CC[C@](C)(C2)[C@]1(S)Cc1ccccn1; 50.5 µM (inactive)

Next:
**Q:** Fill in: GI50 of COc1ccc(N2C(=O)C3c4[nH]c5cccc(C)c5c4C4CCC(C(C)(C)C)CC4C3C2=O)cc1 (stereo not given) is ___
**A:** > 10 µM (inactive)
